B1: APBB1IP (parent)
chain: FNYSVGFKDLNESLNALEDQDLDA

Variants of: B1
TEST METHOD NOTES: protein stability index of a GFP-peptide fusion (GPS, HEK-293T) (PSI 1-6); higher = more stable;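 further: lentivirally expressed fusions sorted by FACS into six bins by GFP to DsRed ratio, PSI derived from sequencing read proportions per bin multiplied by bin number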
SETTINGS: c terminus: a fixed tail appended
METRIC NAME: protein stability index
Give the value as a plain number.

Lab book: protein stability index of `E12P` noted as 4.53

// `L22C` : protein stability index value = 4.62

// protein stability index value for `F7M` : 4.48

# protein stability index (variant: `N2R` ) is 3.26

The value of protein stability index measured for the variant `N11D` turned out to be 4.75

Value of protein stability index reported for the variant `A16G` is 3.94

GET /value?item= `N2C` &field=protein stability index returns 2.18

The measured protein stability index associated with `Q20R` reads 3.21

The variant listed as `V5A` shows protein stability index equal to 4.95

// `N11K` : protein stability index value = 4.17

Measured protein stability index of `D9V` : 2.67

Reported protein stability index ( `E12M` ) = 3.87

Entry under test: `E12K` . Its protein stability index was 4.29

Notebook: `E18D` , protein stability index read as 4.34

Measured protein stability index of `D9W` : 2.7
